target: Thromboxane A2 receptor (Rattus norvegicus); assay: Activity against thromboxane A2 receptor evaluated by contraction of isolated rat thoracic aorta
Sequence (P34978 whole entry): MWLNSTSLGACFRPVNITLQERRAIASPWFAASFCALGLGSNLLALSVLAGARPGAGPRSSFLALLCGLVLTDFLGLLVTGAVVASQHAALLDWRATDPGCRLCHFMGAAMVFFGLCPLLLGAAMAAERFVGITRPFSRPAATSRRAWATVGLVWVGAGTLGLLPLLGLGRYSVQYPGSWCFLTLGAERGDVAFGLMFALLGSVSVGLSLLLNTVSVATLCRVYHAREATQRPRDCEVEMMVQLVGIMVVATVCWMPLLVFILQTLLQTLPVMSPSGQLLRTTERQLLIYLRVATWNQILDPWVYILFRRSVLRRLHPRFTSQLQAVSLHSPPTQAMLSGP
readout.kind: EC50 (nM)

{"columns": ["compound", "target", "readout.kind", "test.value"],
 "data": [
  ["CCCCCC(O)/C=C/[C@@H]1[C@@H](C/C=C\\CCCCO)[C@@H]2C[C@H]1OC(=O)O2 (some centres undefined)", "Thromboxane A2 receptor (Rattus norvegicus)", "EC50", 1],
  ["CCCCCC(O)/C=C/[C@@H]1[C@@H](C/C=C\\CCCC(=O)NC(C)C)[C@@H]2C[C@H]1OC(=O)O2 (some centres undefined)", "Thromboxane A2 receptor (Rattus norvegicus)", "EC50", 324],
  ["CCCCCC(O)/C=C/[C@@H]1[C@@H](C/C=C\\CCCC(=O)O)[C@@H]2C[C@H]1OC(=O)O2 (some centres undefined)", "Thromboxane A2 receptor (Rattus norvegicus)", "EC50", 0.23],
  ["CCCCCC(O)/C=C/[C@@H]1[C@@H](C/C=C\\CCCC(N)=O)[C@@H]2C[C@H]1OC(=O)O2 (some centres undefined)", "Thromboxane A2 receptor (Rattus norvegicus)", "EC50", 58]
]}
